Here, each record is paired with measured % activity data.
biological target: cSRC(h) (Homo sapiens); test: Kinase Profiling Assay; format: biochemical; conditions: peptide 100 μM
Provide only the numeric value, understood in %.

Record excerpt, results attached:
>  <biopolymer.sequence>
FAKLAARLYRKALARQLGVAA [MMI-0300]

>  <readout.number>
26

$$$$
>  <biopolymer.sequence>
KAFAKLAARLYRKALARQLGVAA [MMI-0400]

>  <readout.number>
14

$$$$
>  <biopolymer.sequence>
YARAAARQARAKALNRQLGVA (Mammal) [MMI-0200]

>  <readout.number>
32

$$$$

// below: % activity requested for another sequence
Ask: Please supply the value of reported % activity for the item HRRIKAWLKKIKALARQLGVAA (Mammal) [MMI-0500]
Reply: 30

* * *

Here, each record is paired with measured % activity data.
target: TAO3(h) (Homo sapiens); construct: purchased Millipore; experiment: Kinase Profiling Assay; format: biochemical; conditions: peptide 100 μM
Sequence (Q9H2K8 whole entry): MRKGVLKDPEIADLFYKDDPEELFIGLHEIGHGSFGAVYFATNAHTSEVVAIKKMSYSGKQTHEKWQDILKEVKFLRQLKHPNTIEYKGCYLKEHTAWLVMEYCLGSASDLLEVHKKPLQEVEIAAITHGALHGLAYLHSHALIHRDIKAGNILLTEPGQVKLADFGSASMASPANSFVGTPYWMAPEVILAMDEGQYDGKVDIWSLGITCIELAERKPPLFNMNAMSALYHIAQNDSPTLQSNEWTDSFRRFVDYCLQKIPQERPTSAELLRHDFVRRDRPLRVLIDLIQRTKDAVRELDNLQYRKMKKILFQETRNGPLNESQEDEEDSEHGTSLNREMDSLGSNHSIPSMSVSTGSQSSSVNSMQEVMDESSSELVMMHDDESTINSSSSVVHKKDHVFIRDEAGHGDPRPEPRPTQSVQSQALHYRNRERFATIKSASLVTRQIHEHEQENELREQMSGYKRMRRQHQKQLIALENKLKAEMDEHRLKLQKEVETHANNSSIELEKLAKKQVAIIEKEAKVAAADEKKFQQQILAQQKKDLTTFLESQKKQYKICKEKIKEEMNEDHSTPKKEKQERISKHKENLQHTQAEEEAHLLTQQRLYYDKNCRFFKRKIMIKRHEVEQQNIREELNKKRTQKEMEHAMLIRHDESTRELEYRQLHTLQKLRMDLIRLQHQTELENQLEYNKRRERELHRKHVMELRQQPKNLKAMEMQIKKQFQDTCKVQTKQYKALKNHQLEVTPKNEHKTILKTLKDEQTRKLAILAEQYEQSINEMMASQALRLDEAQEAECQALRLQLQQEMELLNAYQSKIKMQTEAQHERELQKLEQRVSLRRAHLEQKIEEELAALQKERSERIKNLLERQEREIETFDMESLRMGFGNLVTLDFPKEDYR
No end group written: not given here.
Report field: quantity (unit follows the number).

Record excerpt, results attached:
>  <biopolymer.sequence>
YARAAARQARAKALARQLGVAA [MMI-0100]

>  <result>
45%

$$$$
>  <biopolymer.sequence>
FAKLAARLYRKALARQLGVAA [MMI-0300]

>  <result>
77%

$$$$

Ask: Specify % activity for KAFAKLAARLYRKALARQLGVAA [MMI-0400] , system TAO3(h) (Homo sapiens).
Reply: 67%

Ask: Specify % activity for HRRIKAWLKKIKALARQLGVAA (Mammal) [MMI-0500] , system TAO3(h) (Homo sapiens).
Reply: 12%

* * *

Here, each record is paired with measured % activity data.
target: IRAK1(h) (Homo sapiens); construct: purchased Millipore; experiment: Kinase Profiling Assay; assay type: biochemical; details: peptide 100 μM
Sequence (P51617 whole entry): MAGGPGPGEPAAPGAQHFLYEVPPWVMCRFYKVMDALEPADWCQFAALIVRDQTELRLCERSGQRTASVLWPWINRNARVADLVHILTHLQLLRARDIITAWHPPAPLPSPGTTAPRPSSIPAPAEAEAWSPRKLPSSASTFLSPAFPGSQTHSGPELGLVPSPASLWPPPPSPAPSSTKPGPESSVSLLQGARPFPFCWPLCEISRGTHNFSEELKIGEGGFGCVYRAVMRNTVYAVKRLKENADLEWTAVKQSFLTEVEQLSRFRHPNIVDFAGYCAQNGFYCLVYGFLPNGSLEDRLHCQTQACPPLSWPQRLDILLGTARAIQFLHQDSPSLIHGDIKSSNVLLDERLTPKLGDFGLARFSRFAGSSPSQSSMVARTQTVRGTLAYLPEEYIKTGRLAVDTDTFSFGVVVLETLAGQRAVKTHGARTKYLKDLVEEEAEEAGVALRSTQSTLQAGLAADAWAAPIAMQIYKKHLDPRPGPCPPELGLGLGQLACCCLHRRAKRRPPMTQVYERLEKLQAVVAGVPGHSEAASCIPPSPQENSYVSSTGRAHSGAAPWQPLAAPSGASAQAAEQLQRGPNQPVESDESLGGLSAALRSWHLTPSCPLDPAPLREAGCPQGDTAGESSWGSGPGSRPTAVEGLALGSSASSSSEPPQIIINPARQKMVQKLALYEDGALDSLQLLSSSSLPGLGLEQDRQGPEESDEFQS
Provide only the numeric value, understood in %.

Record excerpt, results attached:
>  <biopolymer.sequence>
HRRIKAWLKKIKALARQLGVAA (Mammal) [MMI-0500]

>  <measurement.kind>
% activity

>  <readout.number>
5

$$$$
>  <biopolymer.sequence>
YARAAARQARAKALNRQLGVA (Mammal) [MMI-0200]

>  <measurement.kind>
% activity

>  <readout.number>
101

$$$$
>  <biopolymer.sequence>
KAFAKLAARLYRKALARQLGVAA [MMI-0400]

>  <measurement.kind>
% activity

>  <readout.number>
93

$$$$

Ask: Please supply the value of reported % activity for the item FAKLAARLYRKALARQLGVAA [MMI-0300]
Reply: 95

* * *

Target: PKCζ(h) (Homo sapiens)
Sequence (Q05513 1-592): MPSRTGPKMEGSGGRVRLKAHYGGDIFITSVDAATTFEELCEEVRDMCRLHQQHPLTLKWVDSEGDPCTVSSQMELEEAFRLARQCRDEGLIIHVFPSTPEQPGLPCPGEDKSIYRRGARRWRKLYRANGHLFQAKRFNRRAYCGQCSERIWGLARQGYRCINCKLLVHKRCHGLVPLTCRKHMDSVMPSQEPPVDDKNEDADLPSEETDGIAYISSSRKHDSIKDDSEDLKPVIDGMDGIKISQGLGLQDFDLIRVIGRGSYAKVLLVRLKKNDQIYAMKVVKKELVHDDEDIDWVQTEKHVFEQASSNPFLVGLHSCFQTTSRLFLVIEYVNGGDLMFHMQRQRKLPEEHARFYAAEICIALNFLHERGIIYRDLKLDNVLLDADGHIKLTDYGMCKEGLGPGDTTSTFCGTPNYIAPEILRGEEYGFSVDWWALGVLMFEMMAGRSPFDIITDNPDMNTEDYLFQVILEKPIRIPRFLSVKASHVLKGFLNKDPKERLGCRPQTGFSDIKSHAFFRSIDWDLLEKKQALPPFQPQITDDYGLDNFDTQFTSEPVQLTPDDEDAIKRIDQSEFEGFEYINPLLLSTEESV
Test: Kinase Profiling Assay
Type: biochemical
Details: peptide 100 μM
No end group written: not given here.
measurement.kind: % activity
Report field: quantity (unit follows the number).

>  <biopolymer.sequence>
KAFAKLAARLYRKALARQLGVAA [MMI-0400]

>  <result>
75%

$$$$
>  <biopolymer.sequence>
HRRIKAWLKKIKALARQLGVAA (Mammal) [MMI-0500]

>  <result>
7%

$$$$

Ask: Please supply the value of reported % activity for the item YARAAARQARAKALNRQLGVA (Mammal) [MMI-0200]
Reply: 98%

Ask: Please supply the value of reported % activity for the item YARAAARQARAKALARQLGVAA [MMI-0100]
Reply: 82%

Ask: Please supply the value of reported % activity for the item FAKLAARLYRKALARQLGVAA [MMI-0300]
Reply: 81%
